Listed next: entries and their corresponding IC50.
tested on: human breast cancer cells (MCF-7); assay: Cytotoxicity, MTT assay, MCF-7; format: cell-based; conditions: Homo sapiens, MCF7; MTT, 24 h
API: value field is a number in nM; no unit string.

compound | value unit | IC50
COc1cc(/C=C/C(=O)CC(=O)/C=C/c2ccc(O)c(OC)c2)ccc1O [Curcumin, reference compound] | nM | 20500

Entry CN1C/C(=C\c2cccc([N+](=O)[O-])c2)C(=O)/C(=C/c2ccccc2F)C1 [Compound 83] : reported IC50 = ?
7200

What do you get for CN1CC(=Cc2cccc(N=Cc3cc(Br)ccc3O)c2)C(=O)C(=Cc2ccccc2F)C1 [Compound 96] ?
2500

Entry CN1C/C(=C\c2cccc(N)c2)C(=O)/C(=C/c2ccccc2F)C1 [Compound 92] please
2800

Then this compound: COc1cccc2c1C(=O)c1c(O)c3c(c(O)c1C2=O)C[C@@](O)(C(=O)CO)C[C@@H]3O[C@H]1C[C@H](N)[C@H](O)[C@H](C)O1 [DOX, Doxorubicin, reference compound]
2800
